study system: T1, CD3ε homodimer protein (human, UniProt P07766 23-126, limits assumed, sulfo-tag or biotin label in some ECL assays)
T1 construct: also called human CD3ε homodimer protein; CD3 (CD3ε)
T1 sequence (P07766 23-126 limits assumed): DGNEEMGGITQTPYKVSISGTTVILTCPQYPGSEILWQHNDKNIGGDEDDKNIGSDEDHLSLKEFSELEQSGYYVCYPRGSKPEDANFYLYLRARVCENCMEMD
procedure summary: SPR, CD3ε homodimer on chip;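 further: biacore SPR with antibody variants flowed as analyte over amine-coupled CD3ε homodimer on a CM chip, bound amount of each single-residue H chain variant over that of parent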
Measured ratio of amounts bound vs CE115HA000 accompanies every entry in the list below.
Please respond with just the number, no unit label.

Examples with their reported ratio of amounts bound vs CE115HA000 follow.
*Q* Record request: ratio of amounts bound vs CE115HA000 value, item CE115HA000 Y100P (antibody, name in Kabat numbering, V domains shown) VH: QVQLVESGGGVVQPGRSLRLSCAASGFTFSNAWMHWVRQAPGKGLEWVAQIKAKSNNYATYYAESVKGRFTISRDDSKNSLYLQMNSLKTEDTAVYYCRYVHYGAPYGVDAWGQGTTVTVSS VL: DIVMTQSPLSLPVTPGEPASISCRSSQSLVHSNRNTYLHWYQQKPGQAPRLLIYKVSNRFSGVPDRFSGSGSGTDFTLKISRVEAEDVGVYYCGQGTQVPYTFGQGTKLEIK
*A* 0.48

*Q* Could you do the same for CE115HA000 T57I (antibody, name in Kabat numbering, V domains shown) VH: QVQLVESGGGVVQPGRSLRLSCAASGFTFSNAWMHWVRQAPGKGLEWVAQIKAKSNNYAIYYAESVKGRFTISRDDSKNSLYLQMNSLKTEDTAVYYCRYVHYGAYYGVDAWGQGTTVTVSS VL: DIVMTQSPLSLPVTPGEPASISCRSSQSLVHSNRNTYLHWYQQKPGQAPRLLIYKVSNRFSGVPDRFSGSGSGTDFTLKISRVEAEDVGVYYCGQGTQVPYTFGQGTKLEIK , please?
*A* 0.61

Note: attention shifts to another entry.
*Q* Record request: ratio of amounts bound vs CE115HA000 value, item CE115HA000 H96K (antibody, name in Kabat numbering, V domains shown) VH: QVQLVESGGGVVQPGRSLRLSCAASGFTFSNAWMHWVRQAPGKGLEWVAQIKAKSNNYATYYAESVKGRFTISRDDSKNSLYLQMNSLKTEDTAVYYCRYVKYGAYYGVDAWGQGTTVTVSS VL: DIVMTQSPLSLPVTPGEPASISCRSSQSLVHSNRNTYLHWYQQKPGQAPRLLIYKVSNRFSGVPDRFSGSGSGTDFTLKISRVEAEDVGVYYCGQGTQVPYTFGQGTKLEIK
*A* 0.35
